Where do the numbers come from? From PubChem BioAssay (EPA / NIEHS).

# Read-out: Forkhead box O3 (FOXO3), FOXO3 (gene 2309)
# test: LTEA_HepaRG_FOXO3: Life Technologies and Expression Analysis (LTEA) Assay for Forkhead box O3 (FOXO3) using HepaRG (AID 2283459)
# measurement_setup: mRNA level, 48 h; actives raise or lower the signal
Active and inactive are the calls of the source. How the source made its calls: active means hit-call score of the fitted dose curve at least 0.9, where 1 is the maximum; inactive means score below 0.9.
Outcome codes: active, inactive

1) CSc1nc(NC(C)C)nc(NC(C)C)n1 : inactive
2) C[N+]1(C)CCCCC1 : inactive
3) CCC(CC)Nc1c([N+](=O)[O-])cc(C)c(C)c1[N+](=O)[O-] : inactive
4) CC(C)N(C(=O)SCC(Cl)=C(Cl)Cl)C(C)C : inactive
5) CN1COCN(Cc2cnc(Cl)s2)C1=N[N+](=O)[O-] : inactive
6) CCCOc1nn(C(=O)NS(=O)(=O)c2ccccc2C(=O)OC)c(=O)n1C : inactive
7) CC(=NC#N)N(C)Cc1ccc(Cl)nc1 : inactive
8) CSc1nnc(C(C)(C)C)c(=O)n1N : inactive
9) COc1cccc(C(=O)NN(C(=O)c2cc(C)cc(C)c2)C(C)(C)C)c1C : inactive
10) CC(C1CC1)C(O)(Cn1cncn1)c1ccc(Cl)cc1 (stereo not drawn) : inactive
11) N#CSCSC#N : active
12) CCCSP(=O)(OCC)Oc1ccc(Br)cc1Cl (stereo not drawn) : inactive
13) CNC(=O)Oc1cccc2c1OC(C)(C)O2 : inactive

* * *

# Read-out: Matrix Metallopeptidase 9 (MMP9), MMP9 (gene 4318)
# test: BSK_KF3CT_MMP9: BioMAP Diversity Plus: KF3CT Assay for Matrix Metallopeptidase 9 (MMP9) Biomarker Activity (AID 2283074);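 on AC50: MMP9 protein level quantified by ELISA in the co-culture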
# measurement_setup: primary human keratinocytes with fibroblasts; actives raise or lower the signal
# Description: BSK_KF3CT is a cell-based, multiplexed-readout assay that uses keratinocytes and foreskin fibroblasts, a human skin primary cell co-culture, with measurements taken at 24 hours after chemical dosing in a 96-well plate.BSK_KF3CT_MMP9 is an assay component measured in the BSK_KF3CT assay. It measures MMP-9 antibody related to regulation of gene expression using ELISA technology.Data from the assay component BSK_KF3CT_MMP9 was analyzed into 1 assay endpoint. […]
Calls of active or inactive are those of the source. The calls were made as follows: active = hit-call score of the fitted dose curve at least 0.9, where 1 is the maximum; inactive = score below 0.9.
reported_metric: AC50

1) COP(=O)(OC)OC(Br)C(Cl)(Cl)Br (stereo not drawn) : 30.4 µM (active)
2) CC(C)[C@H](C(=O)O[C@H](C#N)c1cccc(Oc2ccccc2)c1)c1ccc(Cl)cc1 : inactive
3) CCC(CC)Nc1c([N+](=O)[O-])cc(C)c(C)c1[N+](=O)[O-] : 8.34 µM (active)
4) CCOP(=O)(NC(C)C)Oc1ccc(SC)c(C)c1 (stereo not drawn) : inactive
5) CN(C)NC(=O)CCC(=O)O : inactive
6) C[Si](Cn1cncn1)(c1ccc(F)cc1)c1ccc(F)cc1 : inactive
7) CCCCSP(=O)(SCCCC)SCCCC : inactive
8) COP(=O)(OC)SCn1c(=O)oc2cc(Cl)cnc21 : 25.8 µM (active)
9) CC(C)N(C(=O)SCC(Cl)=C(Cl)Cl)C(C)C : 36.6 µM (active)
10) C[N+]1(C)CCCCC1 : inactive
11) CC(Oc1cccc(Cl)c1)C(=O)O (stereo not drawn) : inactive
12) CNc1cnn(-c2cccc(C(F)(F)F)c2)c(=O)c1Cl : inactive
13) COP(=O)(NC(C)=O)SC (stereo not drawn) : inactive
